Data credit: PubChem BioAssay (NCI)

Listed here are molecules together with their documented TGI.
System: OVCAR-8 ovarian
Assay: NCI tumour cell line growth inhibition, 48 h
Number in µM, nothing else.

// TGI lookup, key: "NCCOc1ncccc1/C=C1\c2ccccc2-c2ccc([N+](=O)[O-])cc21"
0.705

// TGI lookup, key: "COc1ccc2nc3cccc([N+](=O)[O-])c3c(NCCNCCN(C)C)c2c1"
0.277

// TGI lookup, key: "CCC(=O)Nc1ccc(NCC(=O)Nc2ccc(OC)cc2)cc1"
42.8

// TGI lookup, key: CC[C@@H](O)C[C@H]1CCC[C@@]2(C[C@@H]3OC(=O)/C=C/[C@@](C)(O)[C@@H](O)[C@H](C)[C@@H](O)[C@H](OC4CCC(N(C)C)C(C)O4)[C@@H](O)[C@](C)(O)CCCCC/C=C/[C@@H]4CC(C)(C)O[C@@]4(O)C[C@H](O2)[C@H]3C)O1 (stereo partly drawn)
20.3
